molecular target: IL-6 (bact-hIL-6, euk-hIL-6 and bact-cy IL-6; 'average binding' of Table 21); test: average binding level in the off-rate screen (unit not given; n = 1)
average binding values for the binders below.
The answer should be a number; do not append a unit.

Which average binding value is on record for Fab 111A7 with the CDR3 methionine changed to C (Fab, V domains shown) VH: EVQLLESGGGLVQPGGSLRLSCAASGFTFSSYAMSWVRQAPGKGPEWVSRISAGGGSTYYGDSVKGRFTISRDNSKNTLYLQMNSLRAEDTAVYYCANRAGWGCGDYWGQGTLVTVSS VL: QTVVTQEPSFSVSPGGTVTLTCGLSSGSVTASNYPGWYQQTPGQAPRALIYSTNDRHSGVPDRFSGSISGNKAALTITGAQAEDEADYYCALDIGDITEFGGGTQLTVL ?
42

For the binder shown here, Fab 111A7 with the CDR3 methionine changed to K (Fab, V domains shown) VH: EVQLLESGGGLVQPGGSLRLSCAASGFTFSSYAMSWVRQAPGKGPEWVSRISAGGGSTYYGDSVKGRFTISRDNSKNTLYLQMNSLRAEDTAVYYCANRAGWGKGDYWGQGTLVTVSS VL: QTVVTQEPSFSVSPGGTVTLTCGLSSGSVTASNYPGWYQQTPGQAPRALIYSTNDRHSGVPDRFSGSISGNKAALTITGAQAEDEADYYCALDIGDITEFGGGTQLTVL , give the reported average binding.
81

Next:
Quick check: average binding of Fab 111A7 with the CDR3 methionine changed to W (Fab, V domains shown) VH: EVQLLESGGGLVQPGGSLRLSCAASGFTFSSYAMSWVRQAPGKGPEWVSRISAGGGSTYYGDSVKGRFTISRDNSKNTLYLQMNSLRAEDTAVYYCANRAGWGWGDYWGQGTLVTVSS VL: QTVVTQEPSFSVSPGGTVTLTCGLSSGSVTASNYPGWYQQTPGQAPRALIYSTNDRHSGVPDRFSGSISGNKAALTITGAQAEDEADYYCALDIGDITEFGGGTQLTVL ?
26

Report average binding for Fab 111A7M_L (CMC optimized variant of Fab 111A7, CDR3 methionine to leucine) (Fab, V domains shown, Fab; The VL is that of 111A7; also called M98X: L) VH: EVQLLESGGGLVQPGGSLRLSCAASGFTFSSYAMSWVRQAPGKGPEWVSRISAGGGSTYYGDSVKGRFTISRDNSKNTLYLQMNSLRAEDTAVYYCANRAGWGLGDYWGQGTLVTVSS VL: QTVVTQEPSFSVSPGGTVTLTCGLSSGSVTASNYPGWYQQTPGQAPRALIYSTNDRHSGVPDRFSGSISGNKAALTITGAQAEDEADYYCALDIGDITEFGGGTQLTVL please.
141
